Target: JAK-2 enzyme (Homo sapiens, UniProt O60674)
Sequence (O60674 whole entry, species assumed): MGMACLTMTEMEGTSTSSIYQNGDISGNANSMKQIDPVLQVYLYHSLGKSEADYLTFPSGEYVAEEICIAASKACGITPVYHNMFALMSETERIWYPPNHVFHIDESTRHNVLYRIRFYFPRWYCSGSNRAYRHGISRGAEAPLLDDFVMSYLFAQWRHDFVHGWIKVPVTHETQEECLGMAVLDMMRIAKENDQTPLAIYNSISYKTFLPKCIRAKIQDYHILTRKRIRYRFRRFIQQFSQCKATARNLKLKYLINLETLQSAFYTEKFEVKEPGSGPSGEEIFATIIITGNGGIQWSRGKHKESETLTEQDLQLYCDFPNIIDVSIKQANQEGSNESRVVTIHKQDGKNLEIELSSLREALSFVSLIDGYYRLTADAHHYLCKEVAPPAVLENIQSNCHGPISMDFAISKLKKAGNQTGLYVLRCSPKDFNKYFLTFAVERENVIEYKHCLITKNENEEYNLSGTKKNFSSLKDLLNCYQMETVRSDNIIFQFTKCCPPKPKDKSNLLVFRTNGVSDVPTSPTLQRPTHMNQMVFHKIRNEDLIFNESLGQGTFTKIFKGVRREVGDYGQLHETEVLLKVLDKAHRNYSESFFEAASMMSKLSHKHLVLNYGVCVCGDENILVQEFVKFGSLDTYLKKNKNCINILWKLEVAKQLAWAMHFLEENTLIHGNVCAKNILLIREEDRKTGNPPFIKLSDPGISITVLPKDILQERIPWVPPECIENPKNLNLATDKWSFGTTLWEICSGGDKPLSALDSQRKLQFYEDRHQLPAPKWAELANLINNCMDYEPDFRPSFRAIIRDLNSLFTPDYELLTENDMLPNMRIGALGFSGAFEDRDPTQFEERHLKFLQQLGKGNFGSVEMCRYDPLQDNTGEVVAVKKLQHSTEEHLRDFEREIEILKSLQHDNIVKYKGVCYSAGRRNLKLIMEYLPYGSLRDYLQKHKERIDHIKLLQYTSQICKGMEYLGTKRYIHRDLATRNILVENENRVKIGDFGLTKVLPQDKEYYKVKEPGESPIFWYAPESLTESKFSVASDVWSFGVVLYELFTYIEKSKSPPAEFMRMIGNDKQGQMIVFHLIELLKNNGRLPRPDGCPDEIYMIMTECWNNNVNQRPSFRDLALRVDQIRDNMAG
Assay: JAK2 inhibition assay (radiometric 33P filter assay)
Type: biochemical
Conditions: 15 μM poly(Glu)4Tyr, 12 μM ATP; read-out: JAK2 inhibition data (Ki)
pKi: −log10 of the molar value.
Each item that follows carries a reported pKi.

// solved cases for pKi follow
CC(=O)N1[C@H](C)CN(c2cc(-n3nc(Nc4ccc(NC(=O)Oc5ccc(C)cc5)cc4)nc3N)ncn2)C[C@@H]1C ... > 7.30
CCCC1CCC(C(=O)Nc2ccc(Nc3nc(N)n(-c4cc(N5CCCN(C(C)=O)CC5)ncn4)n3)cc2)CC1 (stereo not shown) ... 6.30 to 7.30
CC(=O)N1[C@H](C)CN(c2cc(-n3nc(Nc4ccc(N5CCOCC5)cc4)nc3N)ncn2)C[C@@H]1C ... > 7.30
Nc1nc(Nc2ccc(N3CCOCC3)cc2)nn1-c1cc(N2CCCN(C(=O)CC(F)(F)F)CC2)ncn1 ... > 7.30
COC(=O)Nc1ccc(Nc2nc(N)n(-c3ccnc(N4CCCN(C(C)=O)CC4)c3)n2)cc1 ... 6.30 to 7.30

pKi lookup needed for CC(=O)N1CCCN(c2cc(-n3nc(Nc4ccc(N5CCN(C(=O)OC6CCOC6)CC5)cc4)nc3N)ncn2)CC1 (stereo not shown) , thanks.
> 7.30

pKi lookup needed for CC(=O)Nc1ccc(Nc2nc(N)n(-c3ccnc(N4C[C@@H](C)N(C(C)=O)[C@@H](C)C4)c3)n2)cc1 , thanks.
> 7.30

pKi lookup needed for CC(=O)N1CCCN(c2cc(-n3nc(Nc4ccc(N5C[C@@H](C)O[C@@H](C)C5)cc4)nc3N)ncn2)CC1 , thanks.
> 7.30

pKi lookup needed for CCCOC(=O)N1CCN(c2ccc(Nc3nc(N)n(-c4cc(N5CCCN(C(=O)CC#N)CC5)ncn4)n3)cc2)CC1 , thanks.
> 7.30

pKi lookup needed for CC(=O)N1[C@H](C)CN(c2cc(-n3nc(Nc4ccc(N5CCN(C(=O)OC(C)(C)C)CC5)cc4)nc3N)ncn2)C[C@@H]1C , thanks.
> 7.30

pKi lookup needed for CCOC(=O)Nc1ccc(Nc2nc(N)n(-c3ccnc(N4C[C@@H](C)N(C(C)=O)[C@@H](C)C4)c3)n2)cc1 , thanks.
> 7.30

pKi lookup needed for CC(=O)N1CCCN(c2cc(-n3nc(Nc4ccc(N5CCN(C(=O)CC(C)C)CC5)cc4)nc3N)ncn2)CC1 , thanks.
> 7.30

pKi lookup needed for Nc1nc(Nc2ccc(N3CCOCC3)cc2)nn1-c1cc(N2CCCCCC2)ncn1 , thanks.
> 7.30

----------
Each item that follows carries a reported pKi.
Target: JAK-2 enzyme (Homo sapiens, UniProt O60674)
Assay: JAK2 inhibition assay (radiometric 33P filter assay)
Format: biochemical
pKi: −log10 of the molar value.

CC(=O)N1CCCN(c2cc(-n3nc(Nc4ccc(N(C)C(=O)Oc5ccc(C)cc5)cc4)nc3N)ncn2)CC1 ... > 7.30
COc1ccc(OC(=O)N(C)c2ccc(Nc3nc(N)n(-c4cc(N5CCCN(C(C)=O)CC5)ncn4)n3)cc2)cc1 ... > 7.30
CC(=O)N1[C@H](C)CN(c2cc(-n3nc(Nc4ccc(N(C)C(=O)Oc5ccc(C)cc5)cc4)nc3N)ncn2)C[C@@H]1C ... > 7.30

In the following, a different compound is considered.
pKi lookup needed for CC(=O)N1CCCN(c2cc(-n3nc(Nc4ccc(N(C)C(=O)Oc5ccccc5)cc4)nc3N)ncn2)CC1 , thanks.
> 7.30
